Cited source for all entries: the supplement of paper PMC10290057

test system: HCT116; assay: efficacy (fitted maximal change in viability relative to DMSO control); higher = less cytotoxic (negative = loss of viability); details: 48 h;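 further: Luminescence-based viability readout, five doses per compound, normalized against on-plate DMSO and empty-well controls, followed by dose-response curve fitting for every drug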
Rule: efficacy of -30% or more gives y; anything lower gives n.

Consider the following illustrative entries.
COMPOUND	CATEGORY
COc1ccc(CCN(C)CCCOc2ccc([S+](=O)([O-])c3c(C(C)C)c4ccccc4n3C)cc2)cc1OC	n
COC(=O)[C@H](c1ccccc1Cl)N1CCc2sccc2C1 [Clopidogrel bisulfate]	y
CC(C)(C)C[C@H]1N[C@@H](C(=O)N[C@H]2CC[C@H](O)CC2)[C@H](c2cccc(Cl)c2F)[C@@]12C(=O)Nc1cc(Cl)ccc12	n
CCCCCNC(=O)N1CCC(CN(Cc2ccc(Cl)cc2)Cc2ccc([N+](=O)[O-])s2)C1 (stereo not given) [SR-9011]	n
CN1CCN(c2cc(C(=O)Nc3ccc4c(c3)-c3c(c(C(N)=O)nn3-c3ccc(F)cc3)CC4)c(Cl)cn2)CC1 [PHA-408]	n

(Q) Reported efficacy at or above -30%? CC1CCN(c2cc(N3CCN(C)CC3)ccc2NC(=O)c2cc(C#N)c[nH]2)CC1 [c-FMS Inhibitor]
(A) n

(Q) Moving on to Nc1nc(OC(c2ccc(-c3cccc(F)c3)cc2)C(F)(F)F)cc(-c2ccc(C[C@@H](N)C(=O)O)cc2)n1 (stereo not given in full)
(A) y

(Q) // same read-out, input: NC1(Cc2ccc(Cl)cc2)CCN(c2ncnc3[nH]ccc23)CC1
(A) n

(Q) Moving on to O=[S+]([O-])(c1cccc2c(I)cccc12)N1CCCNCC1 [ML-7]
(A) n

(Q) Would you kindly repeat that for CCN1\C=C(C(O)=O)/C(=O)C2=C1C=C(N3CCN(C)CC3)C(=C2)F [Pefloxacin] ?
(A) y

(Q) Follow-up item: COC(=O)Nc1nc2cc(C(=O)c3ccc(F)cc3)ccc2[nH]1 [Flubendazole]
(A) n
